Data origin: patent US4109000A

- methodNotes: acute toxicity (LD50), intraperitoneal, ddY male mice
- conditionParameters: mouse, in vivo, ip; intraperitoneal, ddY male mice (6 weeks age), observation for one week (first table); read-out: LD50
LD50 at 168 h vs 100 mg/kg: less than gives Yes; not less than gives No.

Here are 5 compounds together with their reported answers.
| compound | group |
| --- | --- |
| CCCCc1ccc(C(=O)O)nc1 [Fusaric acid, reference compound] | Yes |
| O=C(NCc1ccccc1)c1ccc(Cc2ccccc2)cn1 [5-Benzylpicolinic acid N-benzylamide] | No |
| COc1ccc(Cc2ccc(C(=O)O)nc2)cc1 | No |
| O=C(O)c1ccc(Cc2ccc([N+](=O)[O-])cc2)cn1 | No |
| O=C(O)c1ccc(Cc2ccccc2)cn1 | No |

Request: Hi there! Is LD50 at 168 h for O=C(O)c1ccc(Cc2ccc(Cl)cc2)cn1 below 100 mg/kg, do you know?
Response: No

Request: Hi there! Is LD50 at 168 h for COc1ccccc1Cc1ccc(C(=O)O)nc1 below 100 mg/kg, do you know?
Response: No

Request: Hi there! Is LD50 at 168 h for CCOC(=O)c1ccc(Cc2ccccc2)cn1.Cl [Ethyl 5-benzylpicolinate (Hydrochloride), ethyl 5-benzylpicolinate hydrochloride] below 100 mg/kg, do you know?
Response: No

Request: Hi there! Is LD50 at 168 h for COC(=O)c1ccc(Cc2ccccc2)cn1 [Methyl 5-benzylpicolinate] below 100 mg/kg, do you know?
Response: Yes
